# methodDescription: In vivo pharmacokinetics in rats
# conditionDetails: Wistar, rat, plasma, oral; rats; i.v. 1 mg/kg, p.o. 30 mg/kg; read-out: Oral bioavailability (%F)
quantity: bioavailability (%)
Entry rule: numbers only, all in %.

Data request: # get_value(readout='bioavailability', item= Nc1nnc(-c2ccccc2O)cc1-c1ccc(N2CCC(N3CCC(c4ccc(OC5CCC(=O)NC5=O)cc4)CC3)CC2)cc1 (stereo not shown) )
Data returned: 16.3

----------
# methodDescription: In vivo pharmacokinetics in mice
# conditionDetails: mouse, plasma; mice, oral, 100mg/kg, dose escalation (Fig. 1G)
quantity: Tmax (h)
Response body: numeric value in h, unit text excluded.

Data request: Using the record for Nc1nnc(-c2ccccc2O)cc1-c1ccc(N2CCC(N3CCC(c4ccc(OC5CCC(=O)NC5=O)cc4)CC3)CC2)cc1 (stereo not shown) , report its Tmax.
Data returned: 4

Taken from paper PMC11009648.
